tested on: HEK293; assay: maximal inhibition of ZIKV NS1 production (% inhibition); higher = stronger antiviral effect
endpointLabel: maximal inhibition
Please reply with the value in numeric form only.

Answered examples (8):
[O-][n+]1ccccc1SSc1cccc[n+]1[O-] 98
C[C@@]12C(=O)OC(=O)[C@]1(C)[C@H]1CC[C@@H]2O1 100
c1ccc2c(-c3cnn4cc(-c5ccc(N6CCNCC6)cc5)cnc34)ccnc2c1 106
CC(C)[C@]12O[C@H]1[C@@H]1O[C@]13[C@]1(O[C@H]1C[C@H]1C4=C(CC[C@@]13C)C(=O)OC4)[C@@H]2O 73
CCCCc1ccc2[nH]c(NC(=O)OC)nc2c1 80
CC(C)(O)/C=C/C(=O)[C@](C)(O)[C@H]1[C@H](O)C[C@@]2(C)[C@@H]3CC=C4[C@@H](C=C(O)C(=O)C4(C)C)[C@]3(C)C(=O)C[C@]12C 52
CC(C)(C)c1cnc(CSc2cnc(NC(=O)C3CCNCC3)s2)o1 93
Cc1cnc(NC(=O)Nc2cc(Br)c(C)cc2OC[C@@H]2CNCCO2)cn1 101

Enquiry: Data request, read-out maximal inhibition, for CC[C@@H](C(=O)[C@@H](C)[C@@H](O)[C@H](C)[C@@H]1O[C@@H]([C@@H](CC)C(=O)O)CC[C@@H]1C)[C@H]1O[C@]2(C=C[C@@H](O)[C@]3(CC[C@@](C)([C@H]4CC[C@](O)(CC)[C@H](C)O4)O3)O2)[C@H](C)C[C@@H]1C
Return: 106

Enquiry: Param item = O=c1[nH]c2ccc(Cl)cc2c(N[C@@H]2CN3CCC2CC3)c1-c1nc2ccccc2[nH]1 ; retrieve measured maximal inhibition.
Return: 100

Enquiry: Which maximal inhibition is listed for CO[C@@]12[C@H](COC(N)=O)C3=C(C(=O)C(C)=C(N)C3=O)N1C[C@@H]1N[C@@H]12 ?
Return: 97

Enquiry: Need maximal inhibition, item COc1cc([C@@H]2c3cc4c(cc3[C@@H](O[C@@H]3O[C@@H]5CO[C@@H](C)O[C@H]5[C@H](O)[C@H]3O)[C@H]3COC(=O)[C@H]23)OCO4)cc(OC)c1O
Return: 102

Enquiry: Need maximal inhibition, item Cc1ccccc1C(=O)c1ccc(Nc2ccc(Br)cc2N)cc1Cl
Return: 68

Enquiry: Dear colleague, I am looking for the recorded maximal inhibition of the following molecule: C[C@]12O[C@H](C[C@]1(O)CO)n1c3ccccc3c3c4c(c5c6ccccc6n2c5c31)CNC4=O
Return: 58

Enquiry: Can you look up the measured maximal inhibition of CC[n+]1c(/C=C/C=C2/N(C)c3ccccc3C2(C)C)sc2ccccc21 for me?
Return: 97

Enquiry: Look at this molecule and give its reported maximal inhibition. CC(=O)OC[C@H]1O[C@@H]([S-])[C@H](OC(C)=O)[C@@H](OC(C)=O)[C@@H]1OC(C)=O.CCP(CC)CC.[Au+]
Return: 107
